System: LXRb:RXRa (NR concentration 270 nM, RXRa partner concentration 90 nM)
Test: PBM binding z-score (relative to random genomic background probes); higher = stronger binding; sequences stand for … in GC…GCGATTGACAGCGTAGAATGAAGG
List of PBM binding z-score values.
MEASUREMENT NAME: PBM binding z-score

>>> print(df.to_string())
                     primary_sequence  endpoint_result
0  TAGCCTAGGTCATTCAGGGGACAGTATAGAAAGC             3.39
1  ATATGTAGGTTAGCTAGGGTCATTCAGACTAGGC             3.59
2  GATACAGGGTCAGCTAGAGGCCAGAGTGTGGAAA             2.53
3  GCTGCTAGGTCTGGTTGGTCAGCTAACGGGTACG           -0.912
4  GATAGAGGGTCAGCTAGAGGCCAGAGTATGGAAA             2.02
5  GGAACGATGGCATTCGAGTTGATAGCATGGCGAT           -0.979

----------
System: PPARg:RXRa DBDmut IVT, anti-RXR (DBD mutation: RXRa K156A/R161A, NR concentration 270 nM, RXRa partner concentration 90 nM)
Experiment: PBM binding z-score (relative to random genomic background probes); higher = stronger binding; sequences stand for … in GC…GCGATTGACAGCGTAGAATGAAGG
Is PBM binding z-score at least 3? Then yes. If not, no.

                      primary_sequence  label_class
 0  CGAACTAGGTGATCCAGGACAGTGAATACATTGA          yes
 1  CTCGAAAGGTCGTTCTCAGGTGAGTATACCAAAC           no
 2  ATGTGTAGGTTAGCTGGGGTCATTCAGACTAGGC           no
 3  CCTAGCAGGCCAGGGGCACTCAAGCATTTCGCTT           no
 4  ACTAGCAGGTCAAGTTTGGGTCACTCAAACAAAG          yes
 5  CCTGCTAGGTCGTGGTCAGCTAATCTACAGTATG           no
 6  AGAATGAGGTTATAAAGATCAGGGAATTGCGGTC           no
 7  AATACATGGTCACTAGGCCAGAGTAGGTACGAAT           no
 8  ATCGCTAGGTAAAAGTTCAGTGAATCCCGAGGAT           no
 9  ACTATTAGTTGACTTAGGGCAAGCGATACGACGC           no
10  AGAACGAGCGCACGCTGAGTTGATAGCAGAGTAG           no
11  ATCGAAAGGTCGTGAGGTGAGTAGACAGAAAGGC           no
12  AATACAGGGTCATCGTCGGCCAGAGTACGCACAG           no
13  CAAACTAGGTCACGAAAGTTCAAAGTCGAATGAC          yes
14  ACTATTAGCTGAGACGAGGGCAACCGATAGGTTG           no
15  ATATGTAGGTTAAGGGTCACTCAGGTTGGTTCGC          yes
16  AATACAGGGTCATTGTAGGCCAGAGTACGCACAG           no
17  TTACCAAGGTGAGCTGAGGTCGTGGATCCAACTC           no
18  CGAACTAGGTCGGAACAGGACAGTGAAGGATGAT          yes
19  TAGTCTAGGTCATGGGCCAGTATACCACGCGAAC          yes
20  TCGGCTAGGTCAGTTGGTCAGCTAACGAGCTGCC           no
21  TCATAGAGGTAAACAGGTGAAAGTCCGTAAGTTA           no
22  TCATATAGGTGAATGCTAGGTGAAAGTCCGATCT          yes
23  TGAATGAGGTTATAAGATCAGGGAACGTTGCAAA           no
24  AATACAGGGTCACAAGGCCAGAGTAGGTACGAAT          yes
25  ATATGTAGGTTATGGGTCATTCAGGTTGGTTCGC          yes
